Source of measurements: patent US9914733B2

Test system: MDA-MB231 cells
Test: Clonogenic cell survival / cell growth inhibition assay, MDA-MB231
Format: cell-based, human
Settings: MDA-MB231 triple-negative breast cancer cells; 48 h treatment, colonies counted after additional 10 days; read-out: IC50, drug concentration required for 50% growth inhibition
Description: The following human breast cancer cell lines were used in these studies: (a) Triple-positive: BT474, MCF7 and T47D, (b) Triple-negative: MDA-MB231 and MDA-MB468. […] Cells were trypsinized and a single cell suspension was prepared. […] The IC50 of each compound was determined from the survival curve using the SigmaPlot-10.0 software program. […]
Each entry below carries its recorded IC50.

{"mol smiles": "COc1cc2c(cc1OC)-c1c3[n+](cn1CC2)CCc1cc(OC)c(OC)cc1-3", "display unit": "µM", "IC50": 20.8}
{"mol smiles": "COc1ccc2c(c1)CCn1c[n+]3c(c1-2)-c1ccc(OC)cc1CC3", "display unit": "µM", "IC50": 2.4}
{"mol smiles": "COc1ccc2c(c1OC)CCn1c[n+]3c(c1-2)-c1ccc(OC)c(OC)c1CC3", "display unit": "µM", "IC50": 14.2}

---

tested on: T47D cells; assay: Clonogenic cell growth inhibition assay, T47D; assay type: cell-based, human; settings: Homo sapiens; T47D triple-positive breast cancer cells; 48 h treatment, colonies counted after additional 10 days; read-out: IC50, drug concentration required for 50% growth inhibition
Parameter IC50: see the listing below.
reported endpoint: IC50 (µM)

{"molecule": "COc1ccc2c(c1)CCn1c[n+]3c(c1-2)-c1ccc(OC)cc1CC3 [1c]", "reported endpoint": "IC50", "display unit": "µM", "test result": 1}
{"molecule": "COc1cc2c(cc1OC)-c1c3[n+](cn1CC2)CCc1cc(OC)c(OC)cc1-3 [1a]", "reported endpoint": "IC50", "display unit": "µM", "test result": 34}
{"molecule": "COc1ccc2c(c1OC)CCn1c[n+]3c(c1-2)-c1ccc(OC)c(OC)c1CC3 [1b]", "reported endpoint": "IC50", "display unit": "µM", "test result": 13.5}

---

system: BT474 cells; assay: Clonogenic cell growth inhibition assay, BT474; type: cell-based; details: Homo sapiens, BT-474; BT474 triple-positive breast cancer cells; 48 h treatment, colonies counted after additional 10 days; read-out: IC50, drug concentration required for 50% growth inhibition
pIC50: −log10 of the molar value.

{"mol smiles": "COc1ccc2c(c1OC)CCn1c[n+]3c(c1-2)-c1ccc(OC)c(OC)c1CC3", "pIC50": 6.15}
{"mol smiles": "COc1ccc2c(c1)CCn1c[n+]3c(c1-2)-c1ccc(OC)cc1CC3", "pIC50": 6.52}
{"mol smiles": "COc1cc2c(cc1OC)-c1c3[n+](cn1CC2)CCc1cc(OC)c(OC)cc1-3", "pIC50": 5.51}
{"mol smiles": "COc1cccc(CCNC(=O)C(=O)NCCc2cccc(OC)c2OC)c1OC", "pIC50": 4.47}
